Target: Aβ42 (Homo sapiens)
Sequence (P05067 672-713): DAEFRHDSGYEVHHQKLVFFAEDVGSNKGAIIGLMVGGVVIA
Assay: Th-T (thioflavin-T) assay of Aβ42 aggregation
Assay type: biochemical
Conditions: head suffix _10 (concentration 10); reading M68
Exam item: assign 1.0 to entries whose Th-T fluorescence of Aβ42 (sheet Fig. 7a), mean of three wells is below 3 and 0.0 to entries at or above 3. Note that a value of exactly 3 receives 0.0.

Use the examples below as a reference point.
Compound | Assigned category
C=C1CC[C@@H]2[C@](C)(CC[C@H]3O[C@H](C=C(C)C)C[C@@]23C)[C@@H]1Cc1c(OC)oc(CO)c(C(=O)OC)c1=O [Compound 21] | 1.0
C=C1CC[C@@H]2[C@](C)(CC[C@H]3O[C@H](C=C(C)C)C[C@@]23C)[C@@H]1Cc1c(OC)oc(CO)c(C)c1=O [Compound 20] | 0.0
C=C1CCC2C(C)(CCC=C(C)C)C(O)CCC2(C)C1Cc1c(OC)oc(CO)c(C)c1=O (centres unmarked) [Compound 12] | 0.0
C=C1CCC2C(C)(CCC=C(C)C)C(O)CCC2(C)C1Cc1c(OC)oc(CO)c(C(=O)OC)c1=O (centres unmarked) [Compound 13] | 1.0

# next compound below
Task item: Confirm or reject: Th-T fluorescence of Aβ42 (sheet Fig. 7a), mean of three wells of C=C1CCC2C(C)(CCC=C(C)C)C(O)CCC2(C)C1Cc1c(OC)oc(C)c(C(=O)OC)c1=O (centres unmarked) [Compound 14] lies strictly below 3
Reply: 1.0

----------
This section presents molecules with their documented Th-T fluorescence of Aβ42 (sheet Fig. 7a), mean of three wells values.
Biological target: Aβ42 (Homo sapiens)
Test: Th-T (thioflavin-T) assay of Aβ42 aggregation
Assay type: biochemical
Settings: head suffix _50 (concentration 50); reading M76
API doc: respond with a numeric literal and nothing else, no unit.

# example entries with known answers
Molecule | Recorded value
C=C1CC[C@@H]2[C@](C)(CC[C@H]3O[C@H](C=C(C)C)C[C@@]23C)[C@@H]1Cc1c(OC)oc(CO)c(C)c1=O | 2.123
C=C1CCC2C(C)(CCC=C(C)C)C(O)CCC2(C)C1Cc1c(OC)oc(CO)c(C(=O)OC)c1=O (centres unmarked) | 0.4704
C=C1CC[C@@H]2[C@](C)(CC[C@H]3O[C@H](C=C(C)C)C[C@@]23C)[C@@H]1Cc1c(OC)oc(CO)c(C(=O)OC)c1=O | 0.2937

Task item: For the molecule C=C1CCC2C(C)(CCC=C(C)C)C(O)CCC2(C)C1Cc1c(OC)oc(CO)c(C)c1=O (centres unmarked) , give its measured Th-T fluorescence of Aβ42 (sheet Fig. 7a), mean of three wells value.
Reply: 1.415

Task item: For the molecule C=C1CCC2C(C)(CCC=C(C)C)C(O)CCC2(C)C1Cc1c(OC)oc(C)c(C(=O)OC)c1=O (centres unmarked) , give its measured Th-T fluorescence of Aβ42 (sheet Fig. 7a), mean of three wells value.
Reply: 2.6047

----------
Biological target: Aβ42 (Homo sapiens)
Assay: Th-T (thioflavin-T) assay of Aβ42 aggregation
Format: biochemical
Conditions: reading M121; compound at 20 (head suffix _20)
Exam item: assign yes to entries whose Th-T fluorescence, mean of three wells (Fig. 7a) is below 2 and no to entries at or above 2. Note that a value of exactly 2 receives no.

Use the examples below as a reference point.
Compound | Assigned category
C=C1CC[C@@H]2[C@](C)(CC[C@H]3O[C@H](C=C(C)C)C[C@@]23C)[C@@H]1Cc1c(OC)oc(CO)c(C(=O)OC)c1=O | yes
C=C1CCC2C(C)(CCC=C(C)C)C(O)CCC2(C)C1Cc1c(OC)oc(CO)c(C)c1=O (centres unmarked) | no

Task item: Confirm or reject: Th-T fluorescence, mean of three wells (Fig. 7a) of C=C1CC[C@@H]2[C@](C)(CC[C@H]3O[C@H](C=C(C)C)C[C@@]23C)[C@@H]1Cc1c(OC)oc(CO)c(C)c1=O lies strictly below 2
Reply: no

Task item: Confirm or reject: Th-T fluorescence, mean of three wells (Fig. 7a) of C=C1CCC2C(C)(CCC=C(C)C)C(O)CCC2(C)C1Cc1c(OC)oc(C)c(C(=O)OC)c1=O (centres unmarked) lies strictly below 2
Reply: yes

Task item: Confirm or reject: Th-T fluorescence, mean of three wells (Fig. 7a) of C=C1CCC2C(C)(CCC=C(C)C)C(O)CCC2(C)C1Cc1c(OC)oc(CO)c(C(=O)OC)c1=O (centres unmarked) lies strictly below 2
Reply: yes
